# tgt: Full length human SIRPα v1 with beta-gal fragment (ED) at its C-terminal, in K562 cells (human, UniProt P78324 31-504)
# Sequence (P78324 31-504): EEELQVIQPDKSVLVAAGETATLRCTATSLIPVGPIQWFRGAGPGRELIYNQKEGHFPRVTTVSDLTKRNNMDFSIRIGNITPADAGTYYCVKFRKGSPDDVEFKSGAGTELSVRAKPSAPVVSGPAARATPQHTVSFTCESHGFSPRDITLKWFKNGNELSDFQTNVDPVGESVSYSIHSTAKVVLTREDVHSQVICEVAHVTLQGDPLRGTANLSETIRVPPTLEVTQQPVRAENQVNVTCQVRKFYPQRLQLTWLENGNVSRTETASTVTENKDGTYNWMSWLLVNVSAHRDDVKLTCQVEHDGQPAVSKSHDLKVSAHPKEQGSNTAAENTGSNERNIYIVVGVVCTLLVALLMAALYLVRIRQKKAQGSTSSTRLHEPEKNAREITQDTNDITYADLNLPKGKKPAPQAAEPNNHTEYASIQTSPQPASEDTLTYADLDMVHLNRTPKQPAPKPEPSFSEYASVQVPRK
# assayInfo: cell-based or functional assay
readoutName: TOP blocking (SHP-1 recruitment) (%)
Only the number, expressed in %, is required.

**Q:** If you can, please state the reported TOP blocking (SHP-1 recruitment) value of Humanized anti-SIRPα antibody hu025.033 (antibody, V domains shown, Humanized from C25) VH: EVQLVQSGAEVKKPGATVKISCKVSGFNIKDYYMHWVQQAPGKGLEWIGRIDPEDAETKYAPKFQGRVTITADTSTDTAYMELSSLRSEDTAVYYCDRGLAYWGQGTLVTVSS VL: EIVLTQSPATLSLSPGERATLSCSASSSVSSSYLYWYQQKPGQAPKLWIYSTSNLASGIPARFSGSGSGTDYTLTISSLEPEDFAVYYCHQWSSYPYTFGQGTKLEIK .
**A:** 84.5

**Q:** Also check Humanized anti-SIRPα antibody hu025.023 (antibody, V domains shown, Humanized from C25) VH: EVQLVQSGAEVKKPGATVKISCKVSGFNIKDYYMHWVQQAPGKGLEWIGRIDPEDAETKYAPKFQGRVTITADTSTNTAYMELSSLRSEDTAVYYCDRGLAYWGQGTLVTVSS VL: EIVLTQSPATLSLSPGERATLSCSASSSVSSSYLYWYQQKPGQAPKLWIYSTSNLASGIPARFSGSGSGTDFTLTISSLEPEDFAVYYCHQWSSYPYTFGQGTKLEIK
**A:** 85.5

**Q:** Also Humanized anti-SIRPα antibody hu025.021 (antibody, V domains shown, Humanized from C25) VH: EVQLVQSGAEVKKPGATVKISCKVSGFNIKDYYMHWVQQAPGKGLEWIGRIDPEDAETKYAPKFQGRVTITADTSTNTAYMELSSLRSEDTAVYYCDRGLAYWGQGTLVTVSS VL: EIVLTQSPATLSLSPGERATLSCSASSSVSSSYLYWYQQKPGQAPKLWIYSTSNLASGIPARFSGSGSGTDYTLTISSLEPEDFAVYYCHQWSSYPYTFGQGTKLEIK , if possible.
**A:** 86.3

From: patent US20240336686A1
